# tested.on: hMC4-R (Homo sapiens (Human), UniProt P32245)
# Sequence (P32245 whole entry): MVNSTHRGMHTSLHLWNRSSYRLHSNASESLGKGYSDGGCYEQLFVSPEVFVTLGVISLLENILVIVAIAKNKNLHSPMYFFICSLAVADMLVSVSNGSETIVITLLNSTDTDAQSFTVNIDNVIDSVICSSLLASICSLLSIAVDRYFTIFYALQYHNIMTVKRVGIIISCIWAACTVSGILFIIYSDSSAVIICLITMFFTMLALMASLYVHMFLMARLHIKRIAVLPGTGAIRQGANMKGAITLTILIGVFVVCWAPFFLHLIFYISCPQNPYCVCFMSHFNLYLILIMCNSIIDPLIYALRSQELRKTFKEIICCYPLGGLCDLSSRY
# method.notes: High and low density hMC4-R functional assay (cAMP, HEK293-T-REx-MC4-R cells)
# Format: cell-based
# condition.notes: 0.1 ng/mL Doxycycline (low density hMC4-R system); NDP-α-MSH = 100%; read-out: Intrinsic Activity (%)
endpoint: Emax (%)

CC(=O)N[C@H](CCCNC(=N)N)C(=O)N[C@H]1CC(=O)NCCCC[C@@H](C(N)=O)NC(=O)[C@H](Cc2c[nH]c3ccccc23)NC(=O)[C@H](CCCNC(=N)N)NC(=O)[C@@H](Cc2ccccc2Cl)NC(=O)[C@H](CCC(N)=O)NC1=O
48
CC(=O)N[C@@H](CCCNC(=N)N)C(=O)N[C@H]1CCC(=O)NCCC[C@@H](C(N)=O)NC(=O)[C@H](Cc2c[nH]c3ccccc23)NC(=O)[C@H](CCCNC(=N)N)NC(=O)[C@@H](Cc2ccccc2Cl)NC(=O)[C@H](CO)NC1=O
33
CC(=O)N[C@@H](CCCNC(=N)N)C(=O)N[C@H]1CCC(=O)NCCC[C@@H](C(N)=O)NC(=O)[C@H](Cc2c[nH]c3ccccc23)NC(=O)[C@H](CCCNC(=N)N)NC(=O)[C@@H](Cc2ccccc2Cl)NC(=O)[C@@H]2C[C@@H](O)CN2C1=O
41
CC(=O)N[C@@H](CCCNC(=N)N)C(=O)N[C@H]1CCCNC(=O)CC[C@@H](C(N)=O)NC(=O)[C@H](Cc2c[nH]c3ccccc23)NC(=O)[C@H](CCCNC(=N)N)NC(=O)[C@@H](Cc2cc(F)cc(F)c2)NC(=O)[C@H](CC(N)=O)NC1=O
34

(I) CC(=O)N[C@@H](CCCNC(=N)N)C(=O)N[C@H]1CCCNC(=O)CC[C@@H](C(N)=O)NC(=O)[C@H](Cc2c[nH]c3ccccc23)NC(=O)[C@H](CCCNC(=N)N)NC(=O)[C@@H](Cc2ccc(F)c(F)c2)NC(=O)[C@H](CC(N)=O)NC1=O
(II) CC(=O)N[C@@H](CCCNC(=N)N)C(=O)N[C@H]1CC(=O)NCCCC[C@@H](C(N)=O)NC(=O)[C@H](Cc2c[nH]c3ccccc23)NC(=O)[C@H](CCCNC(=N)N)NC(=O)[C@@H](Cc2ccccc2F)NC(=O)[C@@H]2CCCN2C1=O
(III) COc1cccc(C[C@H]2NC(=O)[C@H](CCN)NC(=O)[C@@H](NC(=O)[C@H](CCCNC(=N)N)NC(C)=O)CCC(=O)NCCC[C@@H](C(N)=O)NC(=O)[C@H](Cc3c[nH]c4ccccc34)NC(=O)[C@H](CCCNC(=N)N)NC2=O)c1
(IV) CC(=O)N[C@@H](CCCNC(=N)N)C(=O)N[C@H]1CCC(=O)NCCC[C@@H](C(N)=O)NC(=O)[C@H](Cc2c[nH]c3ccccc23)NC(=O)[C@H](CCCNC(=N)N)NC(=O)[C@@H](Cc2cccc(Cl)c2)NC(=O)[C@@H]2C[C@@H](O)CN2C1=O
Task: Arrange the 4 compounds from largest to smallest Emax. API: response body holds the labels in the requested order.
Output: III, I, II, IV
(III: 64%, I: 43%, II: 16%, IV: 6%)

====

# tested.on: hMC4-R (Homo sapiens (Human), UniProt P32245)
# method.notes: High and low density hMC4-R functional assay (cAMP, HEK293-T-REx-MC4-R cells)
# Type: cell-based
# condition.notes: 0.1 ng/mL Doxycycline (low density hMC4-R system)
endpoint: EC50 (nM)

(P) CC(=O)N[C@@H](CCCNC(=N)N)C(=O)N[C@H]1CCC(=O)NCCC[C@@H](C(N)=O)NC(=O)[C@H](Cc2c[nH]c3ccccc23)NC(=O)[C@H](CCCNC(=N)N)NC(=O)[C@@H](Cc2ccccc2C)NC(=O)[C@H](CCC(N)=O)NC1=O
(Q) CC(=O)N[C@@H](CCCNC(=N)N)C(=O)N[C@H]1CCC(=O)NCCC[C@@H](C(N)=O)NC(=O)[C@H](Cc2c[nH]c3ccccc23)NC(=O)[C@H](CCCNC(=N)N)NC(=O)[C@@H](Cc2cccc(C#N)c2)NC(=O)[C@H](CCN)NC1=O
Task: // which entry has the larger EC50 value, P or Q ? Selection: enter the item's label.
Output: Q

Value source: patent US9040663B2
